- System: Mus musculus
- experiment_notes: AUC in mouse at 10 mg/kg, po
- Type: ADME, organism-based, Plasma
- Set-up: dose 10 mg/kg, route oral
- setup_conditions: in vivo
measurement_label: AUC (µM·h)

Here is how some compounds turned out for AUC.
INSERT INTO assay_data (smiles_structure, measurement_label, endpoint_unit, experimental_value) VALUES
  ('CCOc1cccc(-n2cc(C(=O)N3CCN(c4cc(C(=O)O)c5ccccc5c4)CC3)nc2-c2ccc(C)cc2F)c1', 'AUC', 'µM·h', 0.61),
  ('CCOc1cccc(-n2cc(C(=O)N3CCN(c4cc(C(=O)O)c5ccccc5c4)C[C@H]3C(=O)NC(C)C)nc2-c2ccc(C)cc2)c1', 'AUC', 'µM·h', 0.15);

(1) CCOc1cccc(-n2cc(C(=O)N3CCN(c4cc(C(=O)O)c5ccccc5c4)C[C@H]3C(=O)NC(C)C)nc2-c2ccc(C)cc2F)c1
(2) CCOc1cccc(-n2cc(C(=O)N3CCN(c4cc(C(=O)O)c5ccccc5c4)CC3)nc2-c2ccc(C)cc2)c1
Prompt: Please choose the item with the lower AUC value from this pair: 1 and 2 Your answer should be the label attached to the chosen record.
Response: 1
